- Protocol Description: NOD1 signaling inhibitors, primary screen, cell-based, luminescence, uHTS (AID 1578);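 also: HEK-293T reporter cells stimulated with the NOD1 agonist gamma-tri-DAP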
- Settings: NOD1-driven NF-kB luciferase reporter cells, at 4 µM, hits give high values
The whole screen tested about 290,000 compounds, of which about 3,000 (1%) were called active. Shown is part of a subset that was picked to be rich in actives.
The entries below are paired with their reported inhibition.
Answer with a number only, understood to be in %.

Worked examples follow.
> print(dat)
                                   molecule  readout.type  unit.abbreviation  endpoint.value
1  Cc1c(C(C)C)c(=O)n(-c2ccc(S(=O)(=O)NC(C)C)cc2)n1C    inhibition                  %             8.6
2       COc1ccc(/C(N)=N/OC(=O)c2cccs2)cc1OC    inhibition                  %           -61.8
3  COc1ccc(C(=O)NCc2nnc(SCC(=O)N3CCCCC3)o2)cc1OC    inhibition                  %             8.1
4  COc1ccccc1NC(=O)Cn1cnc2c(nc3n2CCCCC3)c1=O    inhibition                  %           -24.1
5  COc1cccc2cc(-c3cc(=O)oc4cc(C)c(OCC(C)=O)cc34)oc12    inhibition                  %            71.3

Per the records, this molecule ( `Cc1c(C(C)C)c(=O)n(-c2ccc(S(=O)(=O)NCc3ccccc3)cc2)n1C` ) has inhibition equal to 44.6

Data origin, for the record: PubChem BioAssay AID1578
